These entries and their values trace back to ChEMBL document CHEMBL1201862.

System: RXF 393
Test: NCI tumour cell line growth inhibition, 48 h
Active and inactive are the calls of the source. No stated cut-off is given here; in the data, active = GI50 up to about 1.1 µM and inactive = higher.
OBSERVED_PROPERTY: GI50

COMPOUND	GI50
O=C(CNc1ccc(Cl)cc1Cl)Nn1c(-c2ccccc2)nc2ccccc2c1=O	18.9 µM (inactive)

Batch: GI50 for all items listed.
1. COc1cc2c(c(OC)c1OC)-c1ccc(SC)c(=O)cc1[C@@H](OC(=O)c1ccncc1)CC2
2. CCCNC1=C2C[C@@H](C)C[C@@H](OC)[C@@H](OC(=O)CCCN)[C@H](C)/C=C(\C)[C@@H](OC(N)=O)[C@H](OC)/C=C\C=C(/C)C(=O)NC(=CC1=O)C2=O
3. O=C1C=CC(=O)c2c1ccc1c3ccccc3n(-c3ccccc3)c21

OUT:
["7.78 µM (inactive)", "11.8 µM (inactive)", "1.71 µM (inactive)"]

Batch: GI50 for all items listed.
1. CC(=O)Oc1ccc(/C=C/C(=O)O[C@@H](C)[C@H](C)OC(=O)/C=C/c2ccc(OC(C)=O)c(OC(C)=O)c2)cc1OC(C)=O
2. CSC(SC)=C(C#N)C(=O)Nc1cccc(Cl)c1
3. O=S1(=O)OCCOS(=O)(=O)C1F
4. c1ccc2c(c1)cc(C1NCCc3nc[nH]c31)c1ccccc12 (stereo not drawn)
5. Cc1cn(C2CC(N=[N+]=[N-])C(CO)O2)c(=O)n(CCCCBr)c1=O (stereo not drawn)
6. CCOc1ccc(NC(=O)C(=O)Nn2c(N)nnc2N)cc1
7. COc1ccccc1NC(=O)CC(=O)NN

OUT:
13.6 µM (inactive)
> 100 µM (inactive)
> 100 µM (inactive)
31.7 µM (inactive)
> 100 µM (inactive)
> 100 µM (inactive)
> 100 µM (inactive)

* * *

Tested on: K562
Assay: NCI tumour cell line growth inhibition, 48 h
The source made the active and inactive calls. Cut-off read from the data, not from the text of the source: active = GI50 up to about 1.1 µM and inactive = higher.
For each of the molecules below, state its GI50.

Guide cases for GI50, answers given:
MOLECULE	GI50
CN(C)CC(O)c1ccc(Cl)c2ccccc12 (stereo not given)	1.15 µM (inactive)
CC[C@]1(Cc2ccc(OC)c(OC)c2)C2CC(C(=O)OC)ON2O[C@H](OCc2ccccc2)[C@@H]1OC(C)=O (stereo not given in full)	> 100 µM (inactive)
COC1CC(OC2C(C)OC(OC3C(C)OC(OC4C(C)OC(O[C@H]5CC[C@@]6(C)C(=CC[C@]7(O)[C@@H]6C[C@@H](O)[C@@]6(C)[C@]7(O)CC[C@@]6(O)C(C)=O)C5)CC4OC)CC3OC)CC2OC)OC(C)C1O (stereo not given in full)	> 12.5 µM (inactive)

Batch: GI50 for all items listed.
1. Nc1nc(N)nc(-c2ccccc2NS(=O)(=O)c2ccc([N+](=O)[O-])cc2)n1
2. C=C([C@@]1(O)C[C@H]2[C@H](CCC2(OC)OC)[C@@H]2c3ccccc3O[C@@H]21)[Si](C)(C)C

OUT:
1: > 10 µM (inactive); 2: 59.3 µM (inactive)

* * *

Tested on: Malme-3M
Test: NCI tumour cell line growth inhibition, 48 h
Calls of active or inactive are those of the source. Rule as the data show it: active = GI50 up to about 1.1 µM and inactive = higher.
The reply should name one outcome from 1 (active), -1 (inactive)

Some solved entries appear below for comparison.
MOLECULE	DISCRETE_LABEL
CC(C)(C)OC(=O)N1N=NC2C1C1CC(OCc3ccccc3)(OCc3ccccc3)C2O1 (centres undefined)	-1
O=C(NCCCN1CCN(CCCNC(=O)Nc2cccc3ccccc23)CC1)Nc1cccc2ccccc12	-1
CC(C)(C)c1ccc(O)c(Br)c1	-1

Turning now to a further molecule:
IN: Query: recorded result category for "O=C(CCBr)N1CCN(C(=O)CCBr)CC1" in this test
OUT: -1
